IC50 reference
# SYSTEM NAME: human DGKζ (Homo sapiens (Human), UniProt Q13574)
# Sequence (Q13574 other isoform, or with tags, fused parts or gaps): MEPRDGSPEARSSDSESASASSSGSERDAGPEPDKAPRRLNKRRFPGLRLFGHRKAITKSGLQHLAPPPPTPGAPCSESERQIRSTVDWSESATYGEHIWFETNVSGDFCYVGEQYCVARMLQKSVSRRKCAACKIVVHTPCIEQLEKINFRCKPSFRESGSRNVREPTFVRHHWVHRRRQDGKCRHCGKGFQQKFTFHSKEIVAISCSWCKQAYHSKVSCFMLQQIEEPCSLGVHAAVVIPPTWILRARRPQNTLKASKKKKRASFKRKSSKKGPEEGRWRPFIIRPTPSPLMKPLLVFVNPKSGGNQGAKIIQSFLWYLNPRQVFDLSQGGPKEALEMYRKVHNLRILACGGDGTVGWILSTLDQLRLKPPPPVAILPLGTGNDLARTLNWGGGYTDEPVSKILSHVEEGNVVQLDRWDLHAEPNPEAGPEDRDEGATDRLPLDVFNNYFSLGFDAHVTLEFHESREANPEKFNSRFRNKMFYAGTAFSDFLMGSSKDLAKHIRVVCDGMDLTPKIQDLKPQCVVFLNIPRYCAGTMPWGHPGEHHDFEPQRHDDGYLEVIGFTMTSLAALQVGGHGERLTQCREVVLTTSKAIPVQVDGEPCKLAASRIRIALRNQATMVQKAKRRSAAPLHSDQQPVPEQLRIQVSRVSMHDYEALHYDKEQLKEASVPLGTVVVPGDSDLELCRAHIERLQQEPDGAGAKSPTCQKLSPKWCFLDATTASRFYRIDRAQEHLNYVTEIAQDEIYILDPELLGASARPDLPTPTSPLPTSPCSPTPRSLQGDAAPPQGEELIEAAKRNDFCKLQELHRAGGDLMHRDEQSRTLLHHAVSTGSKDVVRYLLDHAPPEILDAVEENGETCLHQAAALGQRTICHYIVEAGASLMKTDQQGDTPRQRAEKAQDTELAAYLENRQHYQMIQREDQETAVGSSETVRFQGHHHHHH
# TEST METHOD NOTES: DGKζ LIPGLO assay (extruded liposome substrate)
# Format: biochemical
# ASSAY CONDITIONS: extruded liposome substrate; read-out: DGKζ LIPGLO IC50
TEST READOUT: IC50 (µM)

>  <MOLECULE>
Cn1c(=O)c([N+](=O)[O-])c(N2CCN(Cc3cccc4ccccc34)CC2)c2nc(C#N)ccc21

>  <SYSTEM NAME>
human DGKζ (Homo sapiens (Human), UniProt Q13574)

>  <QUALIFYING SIGN>
=

>  <TEST RESULT>
0.66

$$$$
>  <MOLECULE>
Cn1c(=O)c(C#N)c(N2CCN(Cc3cccc4c3NCC4)CC2)c2nc(Cl)ccc21

>  <SYSTEM NAME>
human DGKζ (Homo sapiens (Human), UniProt Q13574)

>  <QUALIFYING SIGN>
=

>  <TEST RESULT>
4.8

$$$$
>  <MOLECULE>
COc1cc(F)ccc1C(c1ccc(F)cc1)N1CCN(c2c(C#N)c(=O)n(C)c3ccc(Br)nc23)CC1 (single isomer, unassigned) [Example 17]

>  <SYSTEM NAME>
human DGKζ (Homo sapiens (Human), UniProt Q13574)

>  <QUALIFYING SIGN>
=

>  <TEST RESULT>
9.4

$$$$
>  <MOLECULE>
Cn1c(=O)c(C#N)c(N2CCN(C(c3ccc(Cl)cc3)c3ccc(Cl)cc3)CC2)c2nc(Br)ccc21

>  <SYSTEM NAME>
human DGKζ (Homo sapiens (Human), UniProt Q13574)

>  <QUALIFYING SIGN>
>

>  <TEST RESULT>
240

$$$$

----------
pIC50 reference
# SYSTEM NAME: UniProt:Q13574
# TEST METHOD NOTES: DGKζ assay (detergent/lipid micelle substrate)
# Format: biochemical
# ASSAY CONDITIONS: detergent/lipid micelle substrate; read-out: DGKζ IC50
pIC50: −log10 of the molar value.

>  <COMPOUND>
Cc1ccc2c(n1)c(N1CCN(Cc3cccc(F)c3O)CC1)c(C#N)c(=O)n2C

>  <SYSTEM NAME>
UniProt:Q13574

>  <QUALIFYING SIGN>
=

>  <pIC50>
4.52

$$$$
>  <COMPOUND>
Cn1c(=O)c(C#N)c(N2CCN(Cc3ccccc3NC(=O)c3ccccc3)CC2)c2nc(Br)ccc21

>  <SYSTEM NAME>
UniProt:Q13574

>  <QUALIFYING SIGN>
<

>  <pIC50>
3.62

$$$$
>  <COMPOUND>
Cn1c(=O)c([N+](=O)[O-])c(N2CCN(CC(O)c3ccc(F)cc3)CC2)c2nc(C#N)ccc21 (stereo not drawn)

>  <SYSTEM NAME>
UniProt:Q13574

>  <QUALIFYING SIGN>
=

>  <pIC50>
4.17

$$$$
>  <COMPOUND>
Cc1ccc2c(n1)c(N1CCN(C(c3ccc(F)cc3)c3ccc(F)cc3)CC1)c(Cl)c(=O)n2C

>  <SYSTEM NAME>
UniProt:Q13574

>  <QUALIFYING SIGN>
<

>  <pIC50>
3.62

$$$$
>  <COMPOUND>
CC(c1ccc(F)cc1)N1CCN(c2c(C#N)c(=O)n(C)c3ccc(Cl)nc23)CC1 (single isomer, unassigned) [Example 388]

>  <SYSTEM NAME>
UniProt:Q13574

>  <QUALIFYING SIGN>
<

>  <pIC50>
3.62

$$$$
>  <COMPOUND>
C#CCn1c(=O)c([N+](=O)[O-])c(N2CCN(C(c3ccc(F)cc3)c3ccc(F)cc3O)CC2)c2nc(C#N)ccc21 (single isomer, unassigned) [Example 121]

>  <SYSTEM NAME>
UniProt:Q13574

>  <QUALIFYING SIGN>
=

>  <pIC50>
6.74

$$$$
>  <COMPOUND>
Cn1c(=O)c(C#N)c(N2CCN(Cc3cccc(F)c3)CC2)c2nc(Cl)ccc21

>  <SYSTEM NAME>
UniProt:Q13574

>  <QUALIFYING SIGN>
<

>  <pIC50>
3.62

$$$$
>  <COMPOUND>
C#CCOc1ccccc1C(c1ccc(F)cc1)N1CCN(c2c(C#N)c(=O)n(C)c3ccc(Cl)nc23)CC1 (stereo not drawn)

>  <SYSTEM NAME>
UniProt:Q13574

>  <QUALIFYING SIGN>
<

>  <pIC50>
3.62

$$$$
>  <COMPOUND>
Cn1c(=O)c(C#N)c(N2CCN(Cc3ccccc3NS(C)(=O)=O)CC2)c2nc(Br)ccc21

>  <SYSTEM NAME>
UniProt:Q13574

>  <QUALIFYING SIGN>
<

>  <pIC50>
3.62

$$$$
>  <COMPOUND>
Cc1ccc2c(n1)c(N1CCN(C(c3ccc(F)cc3)c3ccc(F)cc3)CC1)c(C#N)c(=O)n2C

>  <SYSTEM NAME>
UniProt:Q13574

>  <QUALIFYING SIGN>
=

>  <pIC50>
4.15

$$$$
>  <COMPOUND>
COc1ccccc1C(c1ccc(F)cc1)N1CCN(c2c(C#N)c(=O)n(C)c3ccc(Br)nc23)CC1 (single isomer, unassigned) [Example 14]

>  <SYSTEM NAME>
UniProt:Q13574

>  <QUALIFYING SIGN>
<

>  <pIC50>
3.62

$$$$
>  <COMPOUND>
CCc1ccc2c(n1)c(N1CCN(C(c3ccccc3)c3ccccc3)CC1)c(C#N)c(=O)n2C

>  <SYSTEM NAME>
UniProt:Q13574

>  <QUALIFYING SIGN>
=

>  <pIC50>
4.92

$$$$
>  <COMPOUND>
COc1ccccc1CN1CCN(c2c(C#N)c(=O)n(C)c3ccc(Br)nc23)CC1

>  <SYSTEM NAME>
UniProt:Q13574

>  <QUALIFYING SIGN>
<

>  <pIC50>
3.62

$$$$
>  <COMPOUND>
CC(c1ccc(F)cc1)N1CCN(c2c([N+](=O)[O-])c(=O)n(CC#N)c3ccc(C#N)nc23)CC1 (stereo not drawn)

>  <SYSTEM NAME>
UniProt:Q13574

>  <QUALIFYING SIGN>
=

>  <pIC50>
4.57

$$$$
>  <COMPOUND>
Cn1c(=O)c(C#N)c(N2CCN(Cc3ccc(C#N)cc3F)CC2)c2nc(Cl)ccc21

>  <SYSTEM NAME>
UniProt:Q13574

>  <QUALIFYING SIGN>
<

>  <pIC50>
3.62

$$$$
